- assay comment: Drug concentration in human OCI-LY3 cells xenografted SCID Beige mouse plasma at 50 mg/kg, po administered via gavage for 14 days and measured at 2 hrs post last dose by LC-MS/MS analysis
- Format: ADME, organism-based
- test settings: time 14 day
readout: concentration at 336 h (ng/mL)
Report the value in ng/mL with no unit label.

Quote concentration at 336 h reported for Cc1cc(-c2nc(C(=O)Nc3cc4oc(N5CCOCC5)nc4nc3N3CC[C@@H](O)C3)co2)ccn1 [EMAVUSERTIB] please.
11600

###

- assay comment: Cmax in dog at 10 mg/kg, po measured up to 24 hrs by LC-MS/MS analysis
- Type: ADME, organism-based, Canis lupus familiaris
- Design: route oral, dose 10 mg/kg, time <=24
- test settings: in vivo
readout: Cmax (ng/mL)
The reply should contain only the number, in ng/mL.

Answer with reported Cmax of "Cc1cc(-c2nc(C(=O)Nc3cc4oc(N5CCOCC5)nc4nc3N3CC[C@@H](O)C3)co2)ccn1"
12800
